Ref: patent US20240182593A1

biological target: T1, cynomolgus monkey OX40 (R&D, Cat. 10311-OX) (cynomolgus monkey); assay: ELISA, cynomolgus monkey OX40 coated at 0.5 ug/ml, serially diluted antibody, goat anti-human Fab secondary antibody, O.D. 450 nm
T1 construct: Bought protein; construct not described; also called Cynomolgus monkey OX40 antigen; Cyno OX40
readout_type: EC50 (read off the curve)

O212 (antibody, V domains shown, also called O212 antibody) VH: EVQLLESGGGLVQPGGSLRLSCAASGFTFSDYAMSWVRQAPGKGLEWVSWIYYDSGSKYYADSVKGRFTISRDNSKNTLYLQMNSLRAEDTAVYYCAKGPGPNGQLAFDYWGQGTLVTVSS VL: QSVLTQPPSASGTPGQRVTISCTGSSSNIGSNSVSWYQQLPGTAPKLLIYANSHRPSGVPDRFSGSKSGTSASLAISGLRSEDEADYYCGAWDYSLSGYVFGGGTKLTVLG
~20 pM
